Target: GLP-1 receptor (UniProt P43220 24-463, limits assumed)
Test: cell-based or functional assay
Where no end group is shown, it is not given here. [ ]: non-standard residue; d: D form. Aib = CC(C)(N)C(=O)O
Collected EC50 (cAMP reporter) values appear next to each entry.
value_kind: EC50 (cAMP reporter) (nM)

1) Y[Aib]EGTFISDYSIAMDKIHQQDFVCWLLAQKGKKNWLKHNITQ-NH2 (not fully specified) [mt-220 (SEQ ID NO: 22)]: 0.18
2) Y[Aib]QGTFTSDYSIYLDEQAAKEFVNWLLAGGPSSGAPPPSK-NH2 (not fully specified) [mt-227 (SEQ ID NO: 25)]: 0.08
3) YXEGTFISDYSIAMDKIHQQDFVNWLLAQKGKKNWLKHNITQ (not fully specified; AIB at position 2; C-terminal amide; Glu16-Lys20 lactam in some Table 3 peptides, absent in others (which ones is not stated)) [mt-218 (SEQ ID NO: 20)]: 0.338
